The values you see were collected from ChEMBL document CHEMBL4619723.

# Tested on: H9c2
# test.protocol: cells
# experimental.context: Rattus norvegicus, H9c2, 48 h
# Description: Cytotoxicity against rat H9c2 cells assessed as reduction in cell viability after 48 hrs by Hoechst 33342 staining-based microscopy and WST-1 assay
quantity.name: EC50

[
  {
    "structure": "CN(C)[C@@H]1CC[C@@]2(C)[C@@H](CC[C@@H]3[C@@H]2CC[C@]2(C)C(c4ccc5cnccc5c4)=CC[C@@H]32)C1",
    "target.entity": "H9c2",
    "EC50": "6.5 to 12.5 µM"
  },
  {
    "structure": "CN(C)[C@@H]1CC[C@@]2(C)[C@@H](CC[C@@H]3[C@@H]2CC[C@]2(C)C(c4cncc(Cl)c4)=CC[C@@H]32)C1",
    "target.entity": "H9c2",
    "EC50": "12.5 to 25 µM"
  },
  {
    "structure": "CN(C)[C@@H]1CC[C@@]2(C)[C@@H](CC[C@@H]3[C@@H]2CC[C@]2(C)C(c4cccc5cnccc45)=CC[C@@H]32)C1",
    "target.entity": "H9c2",
    "EC50": "12.5 to 25 µM"
  },
  {
    "structure": "CN(C)[C@@H]1CC[C@@]2(C)[C@@H](CC[C@@H]3[C@@H]2CC[C@]2(C)C(c4cccnc4)=CC[C@@H]32)C1",
    "target.entity": "H9c2",
    "EC50": "25 to 50 µM"
  }
]

Turning to the following molecule.
State its EC50 on H9c2: CN(C)[C@@H]1CC[C@@]2(C)[C@@H](CC[C@@H]3[C@@H]2CC[C@]2(C)C(c4ccc5ccncc5c4)=CC[C@@H]32)C1
12.5 to 25 µM
